Just for reference, ChEMBL document CHEMBL3137667 is where these values come from.

Experiment: Proposed mechanism(s) of liver damage. [column 'MEC' in source]
Conditions: human

# Compound, Hepatotoxicity (mechanism)
records = [
    ("CCOC(=O)CN[C@@H](C(=O)N1CC[C@H]1C(=O)NCc1ccc(/C(N)=N\\O)cc1)C1CCCCC1 [XIMELAGATRAN]", "Dose-dependant"),
    ("CC(C)[C@@H](CC[C@@H](C)[C@H]1CC[C@H]2[C@@H]3[C@H](O)C[C@H]4C[C@@H](NCCCNCCCCN)CC[C@]4(C)[C@H]3CC[C@]12C)OS(=O)(=O)O [SQUALAMINE]", "Dose-dependant"),
]

====

Conditions: human
Below, each of the compounds is paired with its reported Hepatotoxicity (cytolytic) value.
No unit in the answer, please; the number alone is enough.

Worked examples follow.
# Compound, Recorded Measurement
records = [
    ("Cc1cccc(C)c1NC(=O)C(C)N (centres undefined) [TOCAINIDE]", 5),
    ("FC(F)OC(F)(F)C(F)Cl (centres undefined)", 18),
]

Hepatotoxicity (cytolytic) for COc1nc(C)ccc1CN1CC1C#N (centres undefined) [CIAMEXON] ? 0

Reported Hepatotoxicity (cytolytic), compound CC(C)NNC(=O)c1ccncc1 [IPRONIAZID] : ____ 28

Requested field: Hepatotoxicity (cytolytic). Item: CO[C@@H]1C[C@](C)(O)Cc2cc3c(c(O)c21)C(=O)c1c(O)cc2c(c1C3=O)O[C@@H]1O[C@@]2(C)[C@H](O)[C@@H](N(C)C)[C@@H]1O [MENOGARIL] 0

====

Listed here: items and their measured Hepatotoxicity (moderate).
Settings: human, serum
*1 amine or outer side, *2 acyl side, *3 side chain or, on linkers, in order; H or OH if unused. Where a SMILES comes first, the peptide text is derived from it. Bridges are numbered along the chain shown (N, C = ends). [ ]: non-standard residue; d: D form. The star is where a group is joined. X1 = O=C1C[C@@H](C(=O)[*:2])N([*:1])C[C@H]1CS[C@@H]1CN2CCC1CC2; NMePhe(4-NMe2) = CN[C@@H](Cc1ccc(N(C)C)cc1)C(=O)O; Picolinoyl(3-OH) = O=C(c1ncccc1O)*; Phg = N[C@H](C(=O)O)c1ccccc1; dAbu = CC[C@@H](N)C(=O)O

# Molecule, Hepatotoxicity (moderate)
data = [
    ("Cc1cccc(Nc2cc(Cl)nc(SCC(=O)NCCO)n2)c1C", 1),
    ("CN(C)S(=O)(=O)c1ccc2c(c1)N(CCCN1CCC(CCO)CC1)c1ccccc1S2", 1),
    ("CCN(CC)CCS(=O)(=O)[C@@H]1CCN2C(=O)c3coc(n3)CC(=O)C[C@H](O)/C=C(C)/C=C/CNC(=O)/C=C/[C@@H](C)[C@@H](C(C)C)OC(=O)[C@@H]12.CC[C@H]1NC(=O)[C@@H](NC(=O)c2ncccc2O)[C@@H](C)OC(=O)[C@H](c2ccccc2)NC(=O)[C@@H]2CC(=O)[C@H](CS[C@@H]3CN4CCC3CC4)CN2C(=O)[C@H](Cc2ccc(N(C)C)cc2)N(C)C(=O)[C@@H]2CCCN2C1=O [QUINUPRISTIN/DALFOPRISTIN] ({Picolinoyl(3-OH)}-T[dAbu]P[NMePhe(4-NMe2)][X1][Phg]; ester 1-C)", 8),
]

Then there is this molecule:
Can you look up the measured Hepatotoxicity (moderate) of COc1ccccc1OCCNCC(O)COc1cccc2[nH]c3ccccc3c12 (centres undefined) for me? 0
